Tested on: Enterococcus faecium
Experiment: Antimicrobial activity against vancomycin-resistant Enterococcus faecium 987 after overnight incubation
Type: functional
measure.name: MIC50 (µg/mL)

- smi: "C=CC[C@H](NC(=O)[C@@H](CCCNC(=N)N)NC(=O)[C@@H](CCCCN)NC(=O)COc1ccc2ccccc2c1-c1c(OCC2CCCCC2)ccc2ccccc12)C(=O)OCc1ccccc1.Cl.Cl"
  value.units: "µg/mL"
  reading.qualifier: "="
  measurement: 62.5
- smi: "CCCCCCCCOc1ccc2ccccc2c1-c1c(OCC(=O)N[C@H](CCCCN)C(=O)N[C@H](CCCNC(=N)N)C(=O)N[C@@H](CC(C)C)C(=O)OCc2ccccc2)ccc2ccccc12.Cl.Cl"
  value.units: "µg/mL"
  reading.qualifier: "="
  measurement: 125
- smi: "CN[C@H](CC(C)C)C(=O)N[C@H]1C(=O)N[C@@H](CC(N)=O)C(=O)N[C@H]2C(=O)N[C@H]3C(=O)N[C@H](C(=O)N[C@H](C(=O)O)c4cc(O)cc(O)c4-c4cc3ccc4O)[C@H](O)c3ccc(c(Cl)c3)Oc3cc2cc(c3O[C@@H]2O[C@H](CO)[C@@H](O)[C@H](O)[C@H]2O[C@H]2C[C@](C)(N)[C@H](O)[C@H](C)O2)Oc2ccc(cc2Cl)[C@H]1O"
  value.units: "µg/mL"
  reading.qualifier: "<"
  measurement: 0.98
- smi: "C=CC[C@H](NC(=O)[C@@H](CCCNC(=N)N)NC(=O)[C@@H](CCCCN)NC(=O)COc1ccc2ccccc2c1-c1c(OCc2ccccc2)ccc2ccccc12)C(=O)OCc1ccccc1.Cl.Cl"
  value.units: "µg/mL"
  reading.qualifier: "="
  measurement: 125
- smi: "CC(C)C[C@H](NC(=O)[C@@H](CCCNC(=N)N)NC(=O)[C@@H](CCCCN)NC(=O)COc1ccc2ccccc2c1-c1c(OCC#N)ccc2ccccc12)C(=O)OCc1ccccc1.Cl.Cl"
  value.units: "µg/mL"
  reading.qualifier: "="
  measurement: 62.5
- smi: "C=CC[C@H](NC(=O)[C@@H](CCCNC(=N)N)NC(=O)[C@@H](CCCCN)NC(=O)COc1ccc2ccccc2c1-c1c(OC)ccc2ccccc12)C(=O)OCc1ccccc1.Cl.Cl"
  value.units: "µg/mL"
  reading.qualifier: "="
  measurement: 125
- smi: "C=CC[C@H](NC(=O)[C@@H](CCCNC(=N)N)NC(=O)[C@@H](CCCCN)NC(=O)COc1ccc2ccccc2c1-c1c(OCC(C)C)ccc2ccccc12)C(=O)OCc1ccccc1.Cl.Cl"
  value.units: "µg/mL"
  reading.qualifier: "="
  measurement: 62.5
- smi: "CC(C)CCOc1ccccc1-c1ccccc1OCC(=O)N[C@H](CCCCN)C(=O)N[C@H](CCCNC(=N)N)C(=O)N[C@@H](CC(C)C)C(=O)OCc1ccccc1.Cl.Cl"
  value.units: "µg/mL"
  reading.qualifier: "="
  measurement: 31.3
- smi: "C=CC[C@H](NC(=O)[C@@H](CCCNC(=N)N)NC(=O)[C@@H](CCCCN)NC(=O)COc1ccc2ccccc2c1-c1c(OCC(C)(C)C)ccc2ccccc12)C(=O)OCc1ccccc1.Cl.Cl"
  value.units: "µg/mL"
  reading.qualifier: "="
  measurement: 83.3
- smi: "C=CC[C@H](NC(=O)[C@@H](CCCNC(=N)N)NC(=O)[C@@H](CCCCN)NC(=O)COc1ccc2ccccc2c1-c1c(OCC2CCC2)ccc2ccccc12)C(=O)OCc1ccccc1.Cl.Cl"
  value.units: "µg/mL"
  reading.qualifier: "="
  measurement: 62.5
- smi: "CC(C)CCOc1ccc2ccccc2c1-c1c(OCC(=O)N[C@H](CCCCN)C(=O)N[C@H](CCCNC(=N)N)C(=O)N[C@@H](CC(C)C)C(=O)Oc2ccccc2)ccc2ccccc12.Cl.Cl"
  value.units: "µg/mL"
  reading.qualifier: "="
  measurement: 15.6
- smi: "C=CC[C@H](NC(=O)[C@@H](CCCNC(=N)N)NC(=O)[C@@H](CCCCN)NC(=O)COc1ccc2ccccc2c1-c1c(OCCCc2ccccc2)ccc2ccccc12)C(=O)OCc1ccccc1.Cl.Cl"
  value.units: "µg/mL"
  reading.qualifier: "="
  measurement: 62.5
- smi: "CC(C)C[C@H](NC(=O)[C@@H](CCCNC(=N)N)NC(=O)[C@@H](CCCCN)NC(=O)COc1ccc2ccccc2c1-c1c(OCCC2CC2)ccc2ccccc12)C(=O)OCc1ccccc1.Cl.Cl"
  value.units: "µg/mL"
  reading.qualifier: "="
  measurement: 62.5
- smi: "C=CCOc1ccc2ccccc2c1-c1c(OCC(=O)N[C@H](CCCCN)C(=O)N[C@H](CCCNC(=N)N)C(=O)N[C@@H](CC=C)C(=O)OCc2ccccc2)ccc2ccccc12.Cl.Cl"
  value.units: "µg/mL"
  reading.qualifier: "="
  measurement: 31.3
- smi: "C[C@H](NC(=O)[C@@H](CCCNC(=N)N)NC(=O)[C@@H](CCCCN)NC(=O)COc1ccc2ccccc2c1-c1c(O)ccc2ccccc12)C(=O)OCc1ccccc1.Cl.Cl"
  value.units: "µg/mL"
  reading.qualifier: "="
  measurement: 125
- smi: "C=CCOc1ccc2ccccc2c1-c1c(OCC(=O)OCC)ccc2ccccc12"
  value.units: "µg/mL"
  reading.qualifier: "="
  measurement: 62.5
- smi: "COCCOc1ccc2ccccc2c1-c1c(OCC(=O)N[C@H](CCCCN)C(=O)N[C@H](CCCNC(=N)N)C(=O)N[C@@H](CC(C)C)C(=O)OCc2ccccc2)ccc2ccccc12.Cl.Cl"
  value.units: "µg/mL"
  reading.qualifier: "="
  measurement: 62.5
- smi: "C=CC[C@H](NC(=O)[C@@H](CCCNC(=N)N)NC(=O)[C@@H](CCCCN)NC(=O)COc1ccc2ccccc2c1-c1c(OCCCCC)ccc2ccccc12)C(=O)OCc1ccccc1.Cl.Cl"
  value.units: "µg/mL"
  reading.qualifier: "="
  measurement: 62.5
- smi: "CC(C)C[C@H](NC(=O)[C@@H](CCCNC(=N)N)NC(=O)[C@@H](CCCCN)NC(=O)COc1ccc2ccccc2c1-c1c(OCCc2ccccc2)ccc2ccccc12)C(=O)OCc1ccccc1.Cl.Cl"
  value.units: "µg/mL"
  reading.qualifier: "="
  measurement: 31.3
